Parameter pIC50: see the listing below.
Target: Metabotropic glutamate receptor 3 (Homo sapiens)
Sequence (Q14832 whole entry): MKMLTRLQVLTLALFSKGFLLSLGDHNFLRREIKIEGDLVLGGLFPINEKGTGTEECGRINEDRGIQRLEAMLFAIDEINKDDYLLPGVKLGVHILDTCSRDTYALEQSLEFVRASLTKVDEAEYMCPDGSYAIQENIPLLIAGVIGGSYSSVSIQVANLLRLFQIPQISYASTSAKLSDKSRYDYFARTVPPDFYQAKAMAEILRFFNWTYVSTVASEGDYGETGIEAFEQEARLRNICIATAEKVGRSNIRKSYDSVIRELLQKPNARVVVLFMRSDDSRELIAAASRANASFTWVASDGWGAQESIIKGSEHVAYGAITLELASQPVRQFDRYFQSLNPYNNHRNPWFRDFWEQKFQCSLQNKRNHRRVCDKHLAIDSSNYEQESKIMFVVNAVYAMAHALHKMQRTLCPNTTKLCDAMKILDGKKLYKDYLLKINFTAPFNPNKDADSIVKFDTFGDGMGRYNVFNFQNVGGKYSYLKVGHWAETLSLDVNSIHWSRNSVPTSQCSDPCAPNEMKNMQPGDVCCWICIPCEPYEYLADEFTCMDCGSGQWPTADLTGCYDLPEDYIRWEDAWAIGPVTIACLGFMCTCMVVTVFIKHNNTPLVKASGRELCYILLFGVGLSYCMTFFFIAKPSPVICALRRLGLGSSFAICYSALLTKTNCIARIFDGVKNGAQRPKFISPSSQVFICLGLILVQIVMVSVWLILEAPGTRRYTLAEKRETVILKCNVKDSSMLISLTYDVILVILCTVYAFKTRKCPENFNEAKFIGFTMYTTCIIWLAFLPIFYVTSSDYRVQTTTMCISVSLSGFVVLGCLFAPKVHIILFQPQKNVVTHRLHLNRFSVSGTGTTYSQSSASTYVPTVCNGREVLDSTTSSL
Test: Antagonist activity at recombinant human mGlu3 receptor expressed in hamster AV12 cells co-expressing human EAAT1 assessed as reduction of DCG-4-inhibited forskolin-stimulated cAMP formation after 20 mins by HTRF assay
Please note pIC50 is a logarithmic value: minus log10 of concentration in mol/L. Answer with that number alone.

Solved entries:
N[C@]1(C(=O)O)[C@@H]2[C@@H](C(=O)O)[C@@H]2[C@@H](O)[C@H]1OCc1cccc(Cl)c1: 6.75
N[C@]1(C(=O)O)[C@@H]2[C@@H](C(=O)O)[C@@H]2[C@H](F)[C@H]1OCc1ccc(Cl)c(Cl)c1: 7.15

Exercise: Returns the measured pIC50 for the input compound. Input: [N-]=[N+]=N[C@H]1[C@H]2[C@H](C(=O)O)[C@H]2[C@](N)(C(=O)O)[C@@H]1OCc1ccc(Cl)c(Cl)c1
Solution: 7.27

Exercise: Next up: CC(=O)N[C@H]1[C@H]2[C@H](C(=O)O)[C@H]2[C@](N)(C(=O)O)[C@@H]1OCc1ccc(Cl)c(Cl)c1
Solution: 7.84

Exercise: Next up: COC(=O)N[C@H]1[C@H]2[C@H](C(=O)O)[C@H]2[C@](N)(C(=O)O)[C@@H]1OCc1ccc(Cl)c(Cl)c1
Solution: 7.69

Exercise: Next up: Cn1ncnc1S[C@H]1[C@H]2[C@H](C(=O)O)[C@H]2[C@](N)(C(=O)O)[C@@H]1OCc1ccc(Cl)c(Cl)c1
Solution: 7.53

Exercise: Next up: N[C@]1(C(=O)O)[C@@H]2[C@@H](C(=O)O)[C@@H]2[C@@H](O)[C@H]1OCc1ccc(Cl)cc1
Solution: 6.84
